testedTarget: HIPK2(h) (Homo sapiens, UniProt Q9H2X6)
Sequence (Q9H2X6 whole entry): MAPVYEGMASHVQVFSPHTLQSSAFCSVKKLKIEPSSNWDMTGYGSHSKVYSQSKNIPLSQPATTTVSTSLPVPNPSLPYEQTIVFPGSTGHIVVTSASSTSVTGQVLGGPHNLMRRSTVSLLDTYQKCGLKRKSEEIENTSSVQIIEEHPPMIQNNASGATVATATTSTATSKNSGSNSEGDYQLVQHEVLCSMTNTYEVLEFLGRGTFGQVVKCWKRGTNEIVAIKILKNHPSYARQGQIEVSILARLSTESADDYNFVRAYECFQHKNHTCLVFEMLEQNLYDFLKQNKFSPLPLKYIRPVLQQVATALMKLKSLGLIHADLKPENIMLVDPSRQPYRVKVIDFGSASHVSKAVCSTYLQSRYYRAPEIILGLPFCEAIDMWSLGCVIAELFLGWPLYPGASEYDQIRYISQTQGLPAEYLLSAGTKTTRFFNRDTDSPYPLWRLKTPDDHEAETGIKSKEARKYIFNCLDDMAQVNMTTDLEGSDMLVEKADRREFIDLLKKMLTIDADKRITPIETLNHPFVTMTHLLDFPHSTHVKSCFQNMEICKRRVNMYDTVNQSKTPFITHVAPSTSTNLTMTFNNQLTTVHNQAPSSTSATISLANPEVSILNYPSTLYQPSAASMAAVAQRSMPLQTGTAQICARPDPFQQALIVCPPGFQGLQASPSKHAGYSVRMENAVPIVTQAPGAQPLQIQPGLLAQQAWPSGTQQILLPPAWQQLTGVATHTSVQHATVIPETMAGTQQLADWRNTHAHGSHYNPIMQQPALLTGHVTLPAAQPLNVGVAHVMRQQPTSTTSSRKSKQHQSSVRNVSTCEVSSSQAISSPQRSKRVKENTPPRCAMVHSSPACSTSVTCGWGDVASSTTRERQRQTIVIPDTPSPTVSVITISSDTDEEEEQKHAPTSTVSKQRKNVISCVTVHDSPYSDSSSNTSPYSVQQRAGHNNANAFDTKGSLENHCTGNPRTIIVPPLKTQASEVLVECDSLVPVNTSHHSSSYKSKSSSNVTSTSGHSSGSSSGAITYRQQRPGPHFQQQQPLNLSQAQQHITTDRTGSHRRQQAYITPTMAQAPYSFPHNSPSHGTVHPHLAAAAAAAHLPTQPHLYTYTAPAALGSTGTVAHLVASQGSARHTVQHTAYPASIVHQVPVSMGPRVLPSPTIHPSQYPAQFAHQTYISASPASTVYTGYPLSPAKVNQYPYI
endpointName: IC50

GET /values?readout=IC50&system=HIPK2(h) (Homo sapiens, UniProt Q9H2X6)&item= Cn1cc(-c2ccc3occ(-c4cccc(-c5ccccc5)c4)c3n2)cn1 < 100 nM

GET /values?readout=IC50&system=HIPK2(h) (Homo sapiens, UniProt Q9H2X6)&item= CC(C)n1cc(-c2ccc3occ(-c4ccc5ccccc5c4)c3n2)cn1 < 5000 nM

###

testedTarget: HIPK3(h) (Homo sapiens)
Sequence (Q9H422 whole entry): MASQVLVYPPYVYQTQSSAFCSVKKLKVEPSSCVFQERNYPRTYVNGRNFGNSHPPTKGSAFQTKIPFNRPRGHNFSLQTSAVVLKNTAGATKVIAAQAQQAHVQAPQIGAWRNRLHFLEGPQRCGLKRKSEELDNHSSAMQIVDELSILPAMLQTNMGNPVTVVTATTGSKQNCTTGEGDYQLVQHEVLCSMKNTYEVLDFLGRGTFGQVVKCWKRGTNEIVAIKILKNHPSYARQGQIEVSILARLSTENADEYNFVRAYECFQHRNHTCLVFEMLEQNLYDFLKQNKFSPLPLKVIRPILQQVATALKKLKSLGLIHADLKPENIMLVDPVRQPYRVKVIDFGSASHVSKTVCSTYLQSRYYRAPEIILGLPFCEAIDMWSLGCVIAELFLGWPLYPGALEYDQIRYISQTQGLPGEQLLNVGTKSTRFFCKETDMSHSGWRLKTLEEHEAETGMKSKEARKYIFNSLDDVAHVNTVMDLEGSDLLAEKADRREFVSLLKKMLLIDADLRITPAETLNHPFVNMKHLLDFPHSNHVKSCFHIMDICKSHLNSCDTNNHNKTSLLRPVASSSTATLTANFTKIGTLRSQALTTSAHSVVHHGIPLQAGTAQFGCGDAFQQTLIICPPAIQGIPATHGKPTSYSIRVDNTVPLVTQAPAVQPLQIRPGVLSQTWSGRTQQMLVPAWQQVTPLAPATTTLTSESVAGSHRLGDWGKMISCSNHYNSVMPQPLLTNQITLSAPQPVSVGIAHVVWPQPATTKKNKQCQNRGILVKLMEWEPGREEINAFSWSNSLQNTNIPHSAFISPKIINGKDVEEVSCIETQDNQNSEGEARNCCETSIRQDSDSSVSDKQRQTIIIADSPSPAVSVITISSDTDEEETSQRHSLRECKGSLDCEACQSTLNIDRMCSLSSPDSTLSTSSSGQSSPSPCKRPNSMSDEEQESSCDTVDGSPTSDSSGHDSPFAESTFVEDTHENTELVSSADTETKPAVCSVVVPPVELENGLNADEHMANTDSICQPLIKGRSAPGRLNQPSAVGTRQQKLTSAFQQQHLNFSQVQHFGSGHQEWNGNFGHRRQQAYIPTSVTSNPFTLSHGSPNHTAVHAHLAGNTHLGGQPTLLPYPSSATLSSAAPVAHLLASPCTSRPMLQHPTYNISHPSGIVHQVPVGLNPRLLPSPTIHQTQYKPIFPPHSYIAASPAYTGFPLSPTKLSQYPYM
pIC50: −log10 of the molar value.
endpointName: pIC50

Entry c1ccc(-c2coc3ccc(-c4cn[nH]c4)nc23)cc1 : reported pIC50 = ? > 6.00

###

testedTarget: UniProtKB Q9HAZ1
pIC50: −log10 of the molar value.
Reported pIC50 is given for each of the following molecules.

[[record]]
molecule = "Cn1cc(-c2ccc3occc3n2)cn1 [Preparative Example 12B]"
testedtarget = "UniProtKB Q9HAZ1"
resultvalue = "> 6.00"


GET /values?readout=pIC50&system=UniProtKB Q9HAZ1&item= c1ccc(-c2coc3ccc(-c4cn[nH]c4)nc23)cc1 > 7.00

###

Reported IC50 is given for each of the following molecules.
testedTarget: CLK2 (h) (Homo sapiens, UniProt P49760)
Construct: purchased Merck Millipore (KinaseProfiler service)
Sequence (P49760 whole entry): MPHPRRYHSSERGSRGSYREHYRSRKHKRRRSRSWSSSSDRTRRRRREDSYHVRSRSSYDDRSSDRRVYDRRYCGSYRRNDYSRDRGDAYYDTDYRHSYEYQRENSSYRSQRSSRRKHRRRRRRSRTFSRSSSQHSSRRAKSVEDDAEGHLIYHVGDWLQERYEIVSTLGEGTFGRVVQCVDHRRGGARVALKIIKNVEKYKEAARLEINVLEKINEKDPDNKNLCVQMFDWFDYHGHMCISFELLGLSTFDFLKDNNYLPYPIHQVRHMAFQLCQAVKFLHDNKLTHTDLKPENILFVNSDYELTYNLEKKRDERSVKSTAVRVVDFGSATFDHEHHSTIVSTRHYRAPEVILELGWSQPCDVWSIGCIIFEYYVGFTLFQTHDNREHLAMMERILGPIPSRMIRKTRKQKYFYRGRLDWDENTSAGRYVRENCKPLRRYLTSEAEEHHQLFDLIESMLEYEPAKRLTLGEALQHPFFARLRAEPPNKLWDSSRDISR
runDescription: CLK2 KinaseProfiler radiometric protein kinase assay
Type: biochemical
particulars: radiometric, 15 μM ATP, 40 minutes at room temperature; read-out: CLK2 IC50

[[record]]
molecule = "Cn1cc(-c2ccc3occc3n2)cn1 [Preparative Example 12B]"
resultvalue = "< 5 µM"

[[record]]
molecule = "Cn1cc(-c2ccc3occ(-c4cccc(-c5ccccc5)c4)c3n2)cn1 [Preparative Example 61]"
resultvalue = "< 0.1 µM"


Entry c1ccc(-c2coc3ccc(-c4cccnc4)nc23)cc1 [Preparative Example 6D] : reported IC50 = ? < 5 µM

###

testedTarget: TRKA(h) (Homo sapiens, UniProt P04629)
Sequence (P04629 33-796): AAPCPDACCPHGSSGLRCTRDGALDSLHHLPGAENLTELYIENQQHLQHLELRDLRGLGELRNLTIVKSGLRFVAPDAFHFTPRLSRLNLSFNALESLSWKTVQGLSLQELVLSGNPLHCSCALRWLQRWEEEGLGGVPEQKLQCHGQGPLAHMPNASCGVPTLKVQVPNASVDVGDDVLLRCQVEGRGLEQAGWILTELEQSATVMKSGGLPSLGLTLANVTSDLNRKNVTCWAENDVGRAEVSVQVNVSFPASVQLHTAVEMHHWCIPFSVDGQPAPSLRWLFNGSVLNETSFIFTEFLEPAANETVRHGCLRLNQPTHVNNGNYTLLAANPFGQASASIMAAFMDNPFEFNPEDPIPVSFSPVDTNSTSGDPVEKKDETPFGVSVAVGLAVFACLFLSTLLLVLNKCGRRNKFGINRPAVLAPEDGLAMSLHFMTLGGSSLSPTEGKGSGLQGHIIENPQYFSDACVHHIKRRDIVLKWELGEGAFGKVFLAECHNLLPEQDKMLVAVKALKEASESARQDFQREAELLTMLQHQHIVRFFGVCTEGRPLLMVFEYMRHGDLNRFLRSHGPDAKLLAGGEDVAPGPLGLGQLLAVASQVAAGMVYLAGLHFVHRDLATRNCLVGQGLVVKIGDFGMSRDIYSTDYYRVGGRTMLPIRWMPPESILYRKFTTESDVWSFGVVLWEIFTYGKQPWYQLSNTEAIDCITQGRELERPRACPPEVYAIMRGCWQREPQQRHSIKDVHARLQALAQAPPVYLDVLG
endpointName: IC50

GET /values?readout=IC50&system=TRKA(h) (Homo sapiens, UniProt P04629)&item= Cc1cc(Nc2cc(-c3ccccc3)nc3ccoc23)sn1 [Preparative Example 17E] < 5 µM

###

A set of compounds tested on UniProtKB Q86Z02, with measured IC50:

[[record]]
compound = "Cn1cc(-c2ccc3occ(-c4cccc(-c5ccccc5)c4)c3n2)cn1 [Preparative Example 61]"
endpointname = "IC50"
resultvalue = "< 1 µM"


Entry Cc1n[nH]c(C)c1-c1ccc2occ(-c3ccc4ccccc4c3)c2n1 [Preparative Example 7D] : reported IC50 = ? < 5 µM

Entry Cn1cc(-c2ccc3occ(-c4ccccc4)c3n2)cn1 [Preparative Example 6A] : reported IC50 = ? < 1 µM

Entry Cn1cc(-c2ccc3occ(-c4ccc(S(C)(=O)=O)cc4)c3n2)cn1 [Preparative Example 71] : reported IC50 = ? < 5 µM

Entry c1ccc2cc(-c3coc4ccc(-c5cnoc5)nc34)ccc2c1 [Preparative Example 62] : reported IC50 = ? < 1 µM

Entry c1ccc(-c2coc3ccc(-c4cccnc4)nc23)cc1 [Preparative Example 6D] : reported IC50 = ? < 5 µM

Entry Cn1cc(-c2ccc3occ(-c4ccc(-c5nnn[nH]5)cc4)c3n2)cn1 [Preparative Example 81] : reported IC50 = ? < 5 µM

Entry Cn1cc(-c2ccc3occ(-c4ccc(CO)cc4)c3n2)cn1 [Preparative Example 70] : reported IC50 = ? < 1 µM

Entry c1ccc2cc(-c3coc4ccc(-c5cncs5)nc34)ccc2c1 [Preparative Example 7F] : reported IC50 = ? < 1 µM

###

Reported pIC50 is given for each of the following molecules.
testedTarget: CLK2 (h) (Homo sapiens)
Construct: purchased Merck Millipore (KinaseProfiler service)
runDescription: CLK2 KinaseProfiler radiometric protein kinase assay
Format: biochemical
particulars: radiometric, 15 μM ATP, 40 minutes at room temperature; read-out: CLK2 IC50
pIC50: −log10 of the molar value.

[[record]]
molecule = "c1ccc2cc(-c3coc4ccc(-c5cnoc5)nc34)ccc2c1"
endpointname = "pIC50"
resultvalue = "> 5.30"

[[record]]
molecule = "Cn1cc(-c2ccc3occ(-c4ccc(CO)cc4)c3n2)cn1"
endpointname = "pIC50"
resultvalue = "> 6.00"


Entry CC(C)n1cc(-c2ccc3occ(-c4ccc5ccccc5c4)c3n2)cn1 : reported pIC50 = ? > 5.30

Entry Cn1cc(-c2ccc3occ(-c4ccccc4)c3n2)cn1 : reported pIC50 = ? > 6.00

###

Reported IC50 is given for each of the following compounds.
testedTarget: CLK4 (h) (Homo sapiens)
Construct: purchased Merck Millipore (KinaseProfiler service)
Sequence (Q9HAZ1 whole entry): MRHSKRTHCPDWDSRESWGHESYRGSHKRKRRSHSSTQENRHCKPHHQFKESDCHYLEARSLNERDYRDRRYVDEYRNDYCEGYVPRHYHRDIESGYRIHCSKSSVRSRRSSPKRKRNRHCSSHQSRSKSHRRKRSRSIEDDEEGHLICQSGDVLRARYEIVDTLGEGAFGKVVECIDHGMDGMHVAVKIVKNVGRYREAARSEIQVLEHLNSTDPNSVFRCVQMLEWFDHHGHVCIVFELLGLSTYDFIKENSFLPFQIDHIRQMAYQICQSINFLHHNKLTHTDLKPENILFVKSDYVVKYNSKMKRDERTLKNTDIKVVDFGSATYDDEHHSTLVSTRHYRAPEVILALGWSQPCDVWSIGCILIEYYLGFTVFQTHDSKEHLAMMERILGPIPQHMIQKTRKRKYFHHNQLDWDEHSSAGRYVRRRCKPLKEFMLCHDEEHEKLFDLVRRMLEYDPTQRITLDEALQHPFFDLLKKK
runDescription: CLK4 KinaseProfiler radiometric protein kinase assay
Type: biochemical
particulars: 15 μM ATP, 40 minutes at room temperature

[[record]]
recordsmiles = "CC(C)n1cc(-c2ccc3occ(-c4ccc5ccccc5c4)c3n2)cn1"
resultvalue = "< 5000 nM"


Entry CC(C)(C)c1coc2ccc(-c3cn[nH]c3)nc12 : reported IC50 = ? < 1000 nM

Entry CCc1coc2ccc(-c3cnn(C)c3)nc12 : reported IC50 = ? < 1000 nM

Entry c1ccc(Nc2ccc3occ(-c4ccccc4)c3n2)cc1 : reported IC50 = ? < 5000 nM

###

Reported pIC50 is given for each of the following compounds.
testedTarget: CLK2 (h) (Homo sapiens)
Construct: purchased Merck Millipore (KinaseProfiler service)
runDescription: CLK2 KinaseProfiler radiometric protein kinase assay
Assay type: biochemical
particulars: radiometric, 15 μM ATP, 40 minutes at room temperature; read-out: CLK2 IC50
pIC50: −log10 of the molar value.

Field: example entries. Status: answers known.
[[record]]
compound = "Cn1cc(-c2ccc3occ(-c4ccc5ccccc5c4)c3n2)cn1"
resultvalue = "> 7.00"

[[record]]
compound = "Cn1cc(-c2ccc3occ(-c4ccc(S(C)(=O)=O)cc4)c3n2)cn1"
resultvalue = "> 6.00"

[[record]]
compound = "Cc1cc2occ(-c3ccc4ccccc4c3)c2nc1-c1cnn(C)c1"
resultvalue = "> 6.00"


Let us move to another entry and its pIC50.
GET /values?readout=pIC50&system=CLK2 (h) (Homo sapiens)&item= Cc1n[nH]c(C)c1-c1ccc2occ(-c3ccc4ccccc4c3)c2n1 > 5.30

###

testedTarget: CLK2 (h) (Homo sapiens)
Construct: purchased Merck Millipore (KinaseProfiler service)
runDescription: CLK2 KinaseProfiler radiometric protein kinase assay
Type: biochemical
particulars: radiometric, 15 μM ATP, 40 minutes at room temperature; read-out: CLK2 IC50
pIC50: −log10 of the molar value.
Reported pIC50 is given for each of the following compounds.

Field: example entries. Status: answers known.
[[record]]
compound = "Cn1cc(-c2ccc3occ(-c4cccc(C(C)(C)C)c4)c3n2)cn1 [Preparative Example 74]"
resultvalue = "> 6.00"

[[record]]
compound = "Cn1cc(-c2ccc3occ(-c4ccc([S+](C)[O-])cc4)c3n2)cn1 (stereo not drawn) [Preparative Example 73]"
resultvalue = "> 5.30"

[[record]]
compound = "Cn1cc(-c2ccc3occ(-c4ccc5cn[nH]c5c4)c3n2)cn1 [Preparative Example 65]"
resultvalue = "> 7.00"

[[record]]
compound = "c1ccc2cc(-c3coc4ccc(-c5cncs5)nc34)ccc2c1 [Preparative Example 7F]"
resultvalue = "> 6.00"

[[record]]
compound = "Cn1cc(-c2ccc3occ(-c4ccc(C(N)=O)cc4)c3n2)cn1 [Preparative Example 66]"
resultvalue = "> 6.00"

[[record]]
compound = "CCc1coc2ccc(-c3cnn(C)c3)nc12 [Preparative Example 23]"
resultvalue = "> 6.00"


Entry CC(C)(C)c1coc2ccc(-c3cn[nH]c3)nc12 [Preparative Example 55] : reported pIC50 = ? > 6.00

Entry Cn1cc(-c2ccc3occ(-c4ccc(-c5nnn[nH]5)cc4)c3n2)cn1 [Preparative Example 81] : reported pIC50 = ? > 5.30

Entry c1ccc(-c2coc3ccc(Nc4ccc(N5CCOCC5)cc4)nc23)cc1 [Preparative Example 8B] : reported pIC50 = ? > 6.00
